Collected TGI values appear next to each entry.
- Tested on: MCF7 breast
- procedure details: NCI tumour cell line growth inhibition, 48 h

See these solved cases before continuing.
molecule | reported endpoint | result
C1=Cc2cc3c(c4nccc(c24)N1)OCO3 | TGI | 16.1 µM
O=c1c2ccccc2nc(Cc2nc(-c3ccc(Cl)cc3)cs2)n1-c1ccc(Cl)cc1 | TGI | > 100 µM
NC(=O)c1cc(Cl)ccc1NC(=O)/C=C/c1ccccc1 | TGI | > 100 µM
NNC(=O)c1c(SCc2ccccc2)nc2c3ccccc3ccn12 | TGI | > 100 µM
c1ccc(Sc2ccc(Cc3nc4cc5ccccc5cc4[nH]3)cc2)cc1 | TGI | > 100 µM

Continue with the next compound.
// TGI lookup, key: `O=C1NC(=S)NC(=O)C1C(c1ccc(O)cc1)C1C(=O)NC(=S)NC1=O`
> 100 µM
